Every entry's value here was drawn from paper PMC5540273.

- Tested on: FLT1
- condition-description: concentration: 1 μM,replicates: in singlicate; n = 1;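 further: KINOMEscan kinase panel screen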
Examples of compounds with documented %Inh follow.
endpoint: %Inh (%)

| compound | units-symbol | assay-value |
| --- | --- | --- |
| Nc1nccc(-c2ccc3c(N)n[nH]c3c2)n1 [GSK1034945] | % | 6 |
| FC(F)(F)c1cc(Br)cc(Nc2nccc(-c3cnn4ncccc34)n2)c1 [GW810578] | % | 30 |
| Cc1ccc(CC(=O)N2CCc3cc(-c4cn(C)c5ncnc(N)c45)ccc32)cc1 [GSK2634758] | % | 32 |
| CS(=O)(=O)c1cccc(CNc2nc(Nc3ccc4c(c3)[C@@H]3C[C@@H]4CNC3=O)ncc2C(F)(F)F)c1 | % | 94.4 |
| CC(C)S(=O)(=O)N1CCN(Cc2ccc3c(c2)nc(NC(=O)c2ccsc2)n3C[C@H](O)c2ccccc2)CC1 [GW635815] | % | 71 |
| Cc1nnc(-c2ccc3occ(-c4ccc(S(C)=O)cc4)c3n2)o1 (centres unmarked) | % | 0 |
| COc1cccc(OC)c1C(=O)Nc1cccc(-c2nn3ccccc3c2-c2ccnc(Nc3cccc(F)c3)n2)c1 [GSK361065] | % | 32 |
| Cc1cccc2c(-c3ccncc3)c(-c3ccc(F)cc3)nn12.Cl [GW461487] | % | 8 |
| COc1cc2nccc(Nc3ccc(Oc4ccccc4)cc3)c2cc1OC.Cl [GI261656] | % | 20 |
| NC(=O)c1ccc(-c2cc3ncnc(SCC(=O)O)c3s2)cc1 | % | 4 |
| CCN1CCN(CCCC(=O)Nc2n[nH]c3nc(-c4ccc(O)cc4)c(Br)cc23)CC1 [SB-731579] | % | 0 |
| COc1cccc(C2=C(Nc3cccc(Cl)c3)C(=O)NC2=O)c1 [SB-341556] | % | 13 |
| COc1cc(Nc2nccc(N3CCC(NC(=O)c4cccc(C#N)c4)C3)n2)cc(OC)c1OC (centres unmarked) [GSK1379751] | % | 0 |
| C[C@@H](Oc1cc(-n2cnc3cc(-c4ccncc4)ccc32)sc1C(N)=O)c1ccccc1Cl [GSK479719] | % | 54 |
| CN(c1cccc(CNc2nc(Nc3ccc4c(c3)CC(=O)N4)ncc2C(F)(F)F)c1)S(C)(=O)=O | % | 35 |
| N#Cc1cccc(C(=O)NC2CCN(c3ccnc(Nc4ccc(F)cc4)n3)C2)c1 (centres unmarked) [GSK1379708] | % | 20 |
| Cc1cccc(-c2nc(Nc3ccncc3)c3sccc3n2)n1 [GW869641] | % | 26 |
| Cn1ccc2ncnc(Oc3ccc(NC(=O)Nc4cncc(C(F)(F)F)c4)c(Cl)c3)c21 | % | 94.5 |
| CS(=O)c1ccc(-c2coc3ccc(-c4n[nH]c(=O)o4)cc23)cc1 (centres unmarked) | % | 19 |
| Cc1n[nH]c2cc(Nc3ccnc(Nc4cccc(CN5CCOCC5)c4)n3)ccc12 [GW682569] | % | 70 |
| Cc1ccc(C(=O)Nc2ccc(Oc3ccc4nc(NC(=O)C5CC5)cn4c3)c(F)c2)c(=O)n1-c1ccccc1 | % | 67 |
| Cc1ccc(Nc2ccnc(Nc3ccc4c(c3)CS(=O)(=O)C4)n2)cc1O.Cl [GW579362] | % | 99.6 |
| O=c1[nH]cc(-c2ccc(O)cc2)c2sc(-c3ccncc3)cc12 [GSK1033723] | % | 9 |
| NC(=O)Nc1sc(-c2ccc(F)cc2)cc1C(N)=O [GW789449] | % | 28 |
| CN(c1ccc2c(c1)nc(NCc1ccc(F)cc1)n2C)c1ccnc(Nc2ccc(CS(C)(=O)=O)cc2)n1.Cl [GW813244] | % | 98.9 |
| Cl.Cl.NC[C@H](CC1CCCCC1)NC(=O)c1ccc(-c2ccnc3[nH]ccc23)s1 [GSK1581428] | % | 42 |
| CCn1c(-c2nonc2N)nc2cncc(CNC3CCNCC3)c21.Cl [SB-747651] | % | 8 |
| CN1CCN(CCCNc2nccc(-c3c(-c4ccc(F)cc4)nn4cc(C(N)=O)ccc34)n2)CC1 [GW622475] | % | 54 |
| Cc1ccc2c(-c3ccnc(Nc4ccc(C(F)(F)F)cc4)n3)cnn2n1 [GW819776] | % | 0 |
| Cn1ccc2ncnc(Oc3ccc(NC(=O)Nc4cnn(C(C)(C)C)c4)c(Cl)c3)c21 | % | 97.4 |
| COc1cc2c(Nc3ccc(NC(=O)c4ccccc4)cc3)ncnc2cc1OCCCN1CCOCC1 [GSK301329] | % | 26 |
| COc1cc2ncn(-c3cc(OCC4CCCCC4)c(C(N)=O)s3)c2cc1OC [GSK204559] | % | 44 |
| Cn1cc(-c2cccc3c(N)c(C(N)=O)nnc23)cn1 | % | 0 |
| O=C(NOCC1CC1)c1cc(Br)c(F)c(F)c1Nc1ccc(I)cc1Cl | % | 0 |
| CN(c1ccccc1CNc1nc(Nc2ccc3c(c2)CC(=O)N3)ncc1C(F)(F)F)S(C)(=O)=O | % | 53 |

---

- System: RSK2(Kin.Dom.1-N-terminal)
- Construct: gene RPS6KA3
- condition-description: concentration: 1 μM,replicates: in singlicate; n = 1

| compound | tested-target | %Inh |
| --- | --- | --- |
| Cc1ccc(C(=O)Nc2ccc(Oc3ccc4nc(NC(=O)C5CC5)cn4c3)c(F)c2)c(=O)n1-c1ccccc1 | RSK2(Kin.Dom.1-N-terminal) | 0% |
| c1ccc(Oc2ccc(Nc3ccnc4ccc(-c5ccccn5)cc34)cc2)cc1 | RSK2(Kin.Dom.1-N-terminal) | 7% |
| CCOC(=O)N1CCC(n2cnc(-c3ccc(F)cc3)c2-c2ccnc(N)n2)CC1 | RSK2(Kin.Dom.1-N-terminal) | 23% |
| C[C@@H]1CNc2c(sc3ccc4nc(-c5ccc(O)cc5)ccc4c23)C(=O)N1 | RSK2(Kin.Dom.1-N-terminal) | 58% |
| Cc1cccc2c(-c3ccncc3)c(-c3ccc(F)cc3)nn12.Cl | RSK2(Kin.Dom.1-N-terminal) | 3% |
| COC(=O)c1cccc(NC(=O)NC2CCN(c3ccnc(Nc4cc(OC)c(OC)c(OC)c4)n3)C2)c1 (stereo not drawn) | RSK2(Kin.Dom.1-N-terminal) | 7% |
| Nc1nccc(-c2ccc3c(N)n[nH]c3c2)n1 | RSK2(Kin.Dom.1-N-terminal) | 29% |
| CCn1c(-c2nonc2N)nc2cncc(Br)c21 | RSK2(Kin.Dom.1-N-terminal) | 50% |
| OCCn1cc(-c2cnc3nnn(Cc4ccc5ncccc5c4)c3n2)cn1 | RSK2(Kin.Dom.1-N-terminal) | 0% |
| CC(=O)Nc1ccc(-c2cc3ncnc(SCC(=O)O)c3s2)cc1 | RSK2(Kin.Dom.1-N-terminal) | 0% |
| COc1ccc(Nc2nccc(N3CCC(NC(=O)c4cccc(C#N)c4)C3)n2)cc1 (stereo not drawn) | RSK2(Kin.Dom.1-N-terminal) | 0% |
| Cc1n[nH]c2cc(Nc3ccnc(Nc4cccc(CN5CCOCC5)c4)n3)ccc12 | RSK2(Kin.Dom.1-N-terminal) | 22% |
| Cl.Nc1n[nH]c2cc(-c3ccccn3)ccc12 | RSK2(Kin.Dom.1-N-terminal) | 0% |
| Cc1cccc(-c2nc(Nc3ccncc3)c3sccc3n2)n1 | RSK2(Kin.Dom.1-N-terminal) | 41% |
| CSc1nccc(-c2c(-c3ccc(F)cc3)ncn2CCCN2CCOCC2)n1.Cl | RSK2(Kin.Dom.1-N-terminal) | 46% |
| O=C1NCCc2[nH]c(-c3ccncc3)cc21 | RSK2(Kin.Dom.1-N-terminal) | 8% |
| Cn1ccc2ncnc(Oc3ccc(NC(=O)Nc4cccc(C(F)(F)F)c4)c(F)c3)c21 | RSK2(Kin.Dom.1-N-terminal) | 6% |
| O=c1[nH]cc(-c2ccc(O)cc2)c2sc(-c3ccncc3)cc12 | RSK2(Kin.Dom.1-N-terminal) | 0% |
| Cc1ccn2nc(-c3ccc(F)cc3)c(-c3ccncc3)c2c1.Cl | RSK2(Kin.Dom.1-N-terminal) | 0% |
| CC(=O)Nc1nc2cnc(Nc3cc(NC(=O)c4cccc(CC(C)(C)C#N)c4)ccc3C)nc2s1 | RSK2(Kin.Dom.1-N-terminal) | 0% |
| COc1cc2c(Nc3ccc(NC(=O)c4ccccc4)cc3)ncnc2cc1OCCCN1CCOCC1 | RSK2(Kin.Dom.1-N-terminal) | 0% |
| CCCC(=O)Nc1n[nH]c2ncccc12 | RSK2(Kin.Dom.1-N-terminal) | 19% |
| Cn1ccc2ncnc(Oc3ccc(NC(=O)Nc4cc(C(C)(C)C)on4)c(Cl)c3)c21 | RSK2(Kin.Dom.1-N-terminal) | 16% |
| Cn1ccc2ncnc(Oc3ccc(NC(=O)Nc4cccc(C(F)(F)F)c4)c(Cl)c3)c21 | RSK2(Kin.Dom.1-N-terminal) | 13% |
| CC(C)S(=O)(=O)N1CCN(Cc2ccc3c(c2)nc(NC(=O)c2ccsc2)n3C[C@H](O)c2ccccc2)CC1 | RSK2(Kin.Dom.1-N-terminal) | 91.8% |
| COc1cccc(CNC(=O)NC2CCN(c3ccnc(Nc4cc(OC)c(OC)c(OC)c4)n3)C2)c1 (stereo not drawn) | RSK2(Kin.Dom.1-N-terminal) | 7% |
| Cc1ccc2c(-c3ccnc(Nc4ccc(C(F)(F)F)cc4)n3)cnn2n1 | RSK2(Kin.Dom.1-N-terminal) | 53% |
| O=C(NCC1CC1)c1ccc(-c2cc(C(=O)NC3CC3)ccc2F)cc1 | RSK2(Kin.Dom.1-N-terminal) | 0% |
| O=C(Nc1n[nH]c2cc(-c3ccco3)ccc12)C1CC1 | RSK2(Kin.Dom.1-N-terminal) | 22% |
| O=C(Nc1ccccc1)c1cccc(Oc2ccc3nccn3n2)c1 | RSK2(Kin.Dom.1-N-terminal) | 9% |
| C[C@@H]1CCN(C(=O)N2CCCC2)C[C@@H]1N(C)c1ncnc2[nH]ccc12 | RSK2(Kin.Dom.1-N-terminal) | 10% |
| CN(c1ccc2c(c1)nc(NCc1ccc(F)cc1)n2C)c1ccnc(Nc2ccc(CS(C)(=O)=O)cc2)n1.Cl | RSK2(Kin.Dom.1-N-terminal) | 31% |
| CC(C(=O)NC1CCN(c2ccnc(Nc3ccc(F)cc3)n2)C1)c1ccc(Cl)cc1 (stereo not drawn) | RSK2(Kin.Dom.1-N-terminal) | 0% |
| COc1cccc(OC)c1C(=O)Nc1cccc(-c2nn3ccccc3c2-c2ccnc(Nc3cccc(F)c3)n2)c1 | RSK2(Kin.Dom.1-N-terminal) | 0% |
| C[C@@H]1CNc2c(sc3ccc4nc(-c5ccncc5)ccc4c23)C(=O)N1 | RSK2(Kin.Dom.1-N-terminal) | 4% |
| C[C@@H](Oc1cc(-n2cnc3ccc(-c4ccncc4)cc32)sc1C(N)=O)c1ccccc1Cl | RSK2(Kin.Dom.1-N-terminal) | 34% |
